Numbers sourced from paper PMC4072508.

# system_name: T1, Mcl-1, Q07820
# T1 chain: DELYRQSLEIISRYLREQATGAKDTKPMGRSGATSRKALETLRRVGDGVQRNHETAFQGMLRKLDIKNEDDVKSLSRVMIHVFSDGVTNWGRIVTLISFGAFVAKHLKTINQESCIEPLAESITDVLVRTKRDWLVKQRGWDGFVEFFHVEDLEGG
# method_notes: peptide SPOT array, c-Myc-tagged receptor at 1 uM or 100 nM, anti-c-Myc-Cy3
Rule: MET for SPOT signal as a fraction of Bim BH3's signal on the same receptor and array not less than 0.04, NOT MET for anything less.

ISSYMVLAPVFGYLLDRYNRKYLMCG [SPNS1] | MET
SKVRERYVQMLDQIARQMIDFYKDLV [C1orf125] | NOT MET
SWFIQSLCAMDKQYADKLEFMHILTR [CASP3] | MET

query: Can QRKHEGFERDLAALGDKVNSLGETAE [SPTAN1] be said to have SPOT signal as a fraction of Bim BH3's signal on the same receptor and array at or above 0.04?
result: MET

query: Can ASEANLFEEALEKYGKDFTDIQQDFL [MTA1] be said to have SPOT signal as a fraction of Bim BH3's signal on the same receptor and array at or above 0.04?
result: NOT MET

query: Can AIVADRMVEILFHYADRALKKCPDQG [VPS8] be said to have SPOT signal as a fraction of Bim BH3's signal on the same receptor and array at or above 0.04?
result: NOT MET

query: Can AALFLHAGCQLLTAGEDGKVQVWSGS [TEP1] be said to have SPOT signal as a fraction of Bim BH3's signal on the same receptor and array at or above 0.04?
result: NOT MET

query: Can LKELDLSGNSLSHSAVKSLCKTLRRP [NLRP1] be said to have SPOT signal as a fraction of Bim BH3's signal on the same receptor and array at or above 0.04?
result: MET

query: Can YIVLGLRKTTLQKVGKEVAELVGRVG [NLRX1] be said to have SPOT signal as a fraction of Bim BH3's signal on the same receptor and array at or above 0.04?
result: MET

query: Can SQRGTDFSVLLSSAGDSFSQFRFAEE [AVEN] be said to have SPOT signal as a fraction of Bim BH3's signal on the same receptor and array at or above 0.04?
result: MET

query: Can SKSKIHAARSLSEIAIDLTETGTLKT [FRMD4A] be said to have SPOT signal as a fraction of Bim BH3's signal on the same receptor and array at or above 0.04?
result: NOT MET

query: Can GLFSATSGVDLKYVLDTFGQEVRPVS [DDX7] be said to have SPOT signal as a fraction of Bim BH3's signal on the same receptor and array at or above 0.04?
result: NOT MET
